Cited source for all entries: patent US20240158446A1

target: GDP-bound KRAS wild-type protein (Homo sapiens, UniProt P01116); assay: Binding to KRAS by surface plasmon resonance (SPR), Single Cycle Kinetics; settings: SPR, Single Cycle Kinetics, GDP-bound KRAS wild-type protein; read-out: KRAS KD
Sequence (P01116 whole entry): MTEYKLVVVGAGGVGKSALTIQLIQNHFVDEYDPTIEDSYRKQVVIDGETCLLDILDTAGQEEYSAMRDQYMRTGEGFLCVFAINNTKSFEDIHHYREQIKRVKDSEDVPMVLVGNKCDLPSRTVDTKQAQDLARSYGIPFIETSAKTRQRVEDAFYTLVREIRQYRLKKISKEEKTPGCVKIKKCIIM
Where a SMILES comes first, the peptide text is derived from it. Bridges are numbered along the chain shown (N, C = ends). [ ]: non-standard residue; d: D form. The star is where a group is joined. hPhe(3-Cl-4-CF3) = N[C@@H](CCc1ccc(C(F)(F)F)c(Cl)c1)C(=O)O; NPrPhe(4-CF3) = CCCN[C@@H](Cc1ccc(C(F)(F)F)cc1)C(=O)O; NMeGly(cPent) = CN[C@H](C(=O)O)C1CCCC1; NMeD = CN[C@@H](CC(=O)O)C(=O)O; NMeL = CN[C@@H](CC(C)C)C(=O)O; NMeAbu = CC[C@H](NC)C(=O)O; Morpholide = C1CN(*)CCO1; Ac4c = NC1(C(=O)O)CCC1; Sar = CNCC(=O)O
QUANTITY KIND: Kd
State the value, then name its unit.

CCC[C@H]1C(=O)N[C@@H]([C@@H](C)CC)C(=O)N2CCC[C@H]2C(=O)N(C)[C@H]2C/C=C\CCN(C2=O)[C@@H](Cc2ccc(C)cc2)C(=O)N(C)CC(=O)N[C@@H](CCc2ccc(C(F)(F)F)c(OC)c2)C(=O)N2C[C@H](OCC)C[C@H]2C(=O)N(C)C2(CCC2)C(=O)N(C)[C@@H](C2CCCC2)C(=O)N(C)[C@H](C(=O)N2CCCC2)CC(=O)N1C [PP3102] ... 0.18 nM
CCCN1C(=O)CN(C)C(=O)CN(C)C(=O)[C@H]([C@@H](C)CC)NC(=O)[C@H](CC(C)C)N(C)C(=O)C[C@@H](C(=O)N2CCOCC2)N(C)C(=O)[C@H](C2CCCC2)N(C)C(=O)C2(CCC2)NC(=O)[C@H](CC)N(C)C(=O)[C@H](CCc2ccc(C(F)(F)F)c(Cl)c2)NC(=O)CN(C)C(=O)[C@@H]1Cc1ccc(C(F)(F)F)cc1 [PP1918] ([NMeL]I[Sar][Sar][NPrPhe(4-CF3)][Sar][hPhe(3-Cl-4-CF3)][NMeAbu][Ac4c][NMeGly(cPent)][NMeD]-Morpholide; lactam N-11) ... 0.19 nM

## Task Requested field: Kd. Item: CCO[C@@H]1C[C@H]2C(=O)NC3(CCC3)C(=O)N(C)[C@@H](C3CCCC3)C(=O)N(C)[C@H](C(=O)N(C)C)CC(=O)N(C)[C@@H](CC)C(=O)N[C@@H]([C@@H](C)CC)C(=O)N(C)CC(=O)N(C)[C@H]3C/C=C\CCN(C3=O)[C@@H](Cc3ccc(C(F)(F)F)cc3)C(=O)N(C)CC(=O)N[C@@H](CCc3cc(F)c(C(F)(F)F)c(F)c3)C(=O)N2C1 [PP0824]
## Result 0.055 nM

###

IC50, human lung cancer strain NCI-H441, per-entry values.
Answers are plain numbers, in µM.

Some solved cases for reference:
CC[C@H](C)[C@@H]1NC(=O)[C@@H]2CCC/C=C/c3ccc(cc3)C[C@@H](C(=O)N(C)CC(=O)N[C@@H](CCc3ccc(Cl)c(Cl)c3)C(=O)N3C[C@H](OC4CCC4)C[C@H]3C(=O)NC3(CC(C)(C)C3)C(=O)N(C)[C@@H](C3CCCC3)C(=O)N(C)[C@H](C(=O)N(C)CC)CC(=O)N2C)N2CC/C=C\C[C@@H](C2=O)N(C)C(=O)CN(C)C1=O ... 0.0212
CCO[C@@H]1C[C@H]2C(=O)NC3(CCC3)C(=O)N(C)[C@@H](C3CCCC3)C(=O)N(C)[C@H](C(=O)N3CCOCC3)CC(=O)N(C)[C@@H](CC)C(=O)N[C@@H]([C@@H](C)CC)C(=O)N3CC[C@H]3C(=O)N(C)[C@H]3CC[C@@H](C)CN(C3=O)[C@@H](Cc3ccc(C(F)(F)F)cc3)C(=O)N(C)CC(=O)N[C@@H](CCc3cc(F)c(C(F)(F)F)c(F)c3)C(=O)N2C1 ... 0.0134

## Task Requested field: IC50. Item: `CCO[C@@H]1C[C@H]2C(=O)NC3(CCC3)C(=O)N(C)[C@@H](C3CCCC3)C(=O)N(C)[C@H](C(=O)N(C)C)CC(=O)N(C)[C@@H](CC)C(=O)N[C@@H]([C@@H](C)CC)C(=O)N(C)CC(=O)N(C)[C@H]3C/C=C\CCN(C3=O)[C@@H](Cc3ccc(C(F)(F)F)cc3)C(=O)N(C)CC(=O)N[C@@H](CCc3ccc4sccc4c3)C(=O)N2C1`
## Result 0.156
